test.summary: shake flask on a mixture of 185; loss from the water phase only; LC-Orbitrap peak areas
setup.conditions: room
Here the recorded log partition dichloromethane / HPLC water, unbuffered, traces of methanol / DMSO is given for each entry.
Your answer is read as log10, so omit the unit and give the number.

Query block: Please look up its log partition dichloromethane / HPLC water, unbuffered, traces of methanol / DMSO: "CCCCCCOc1cc(C)c(O)c(C)c1C"
Result block: -0.07725

Query block: Please look up its log partition dichloromethane / HPLC water, unbuffered, traces of methanol / DMSO: "CC(C)c1cccc(O)c1"
Result block: -0.09834

Query block: Please look up its log partition dichloromethane / HPLC water, unbuffered, traces of methanol / DMSO: "CC(=O)Nc1ccc(C)cc1C"
Result block: 0.8573

Query block: Please look up its log partition dichloromethane / HPLC water, unbuffered, traces of methanol / DMSO: "N#CC(c1ccccc1)c1ccccc1"
Result block: 0.1658

Query block: Please look up its log partition dichloromethane / HPLC water, unbuffered, traces of methanol / DMSO: "COC(=O)c1ccc(C(=O)OC)c(C(=O)OC)c1"
Result block: 1.169

Query block: Please look up its log partition dichloromethane / HPLC water, unbuffered, traces of methanol / DMSO: "CO/N=C(/C1=NOCCO1)c1ccccc1Oc1ncnc(Oc2ccccc2Cl)c1F"
Result block: 1.68

Query block: Please look up its log partition dichloromethane / HPLC water, unbuffered, traces of methanol / DMSO: "OCCN(CCO)c1ccccc1"
Result block: 0.4782

Query block: Please look up its log partition dichloromethane / HPLC water, unbuffered, traces of methanol / DMSO: OC(c1ccc(F)cc1)(c1cncnc1)c1ccccc1Cl (centres unmarked)
Result block: 2.933

Query block: Please look up its log partition dichloromethane / HPLC water, unbuffered, traces of methanol / DMSO: CCCCC(CC)COC(=O)c1ccccc1C(=O)O (centres unmarked)
Result block: 0.3352

Query block: Please look up its log partition dichloromethane / HPLC water, unbuffered, traces of methanol / DMSO: CCCCC(O)(Cn1cncn1)c1ccc(Cl)cc1Cl (centres unmarked)
Result block: 4.823

Query block: Please look up its log partition dichloromethane / HPLC water, unbuffered, traces of methanol / DMSO: "CC(C)Nc1nc(N)nc(Cl)n1"
Result block: 1.437

Query block: Please look up its log partition dichloromethane / HPLC water, unbuffered, traces of methanol / DMSO: "CCOC(=O)CC(=O)c1ccccc1"
Result block: -0.2025

Query block: Please look up its log partition dichloromethane / HPLC water, unbuffered, traces of methanol / DMSO: "C=C(C)C(=O)OCCOCCOC(=O)C(=C)C"
Result block: 0.4156

Query block: Please look up its log partition dichloromethane / HPLC water, unbuffered, traces of methanol / DMSO: CCCCCCCCCCCC(=O)OCC(O)CO (centres unmarked)
Result block: -0.6352

Query block: Please look up its log partition dichloromethane / HPLC water, unbuffered, traces of methanol / DMSO: "O=C(Nc1ccccc1-c1ccc(Cl)cc1)c1cccnc1Cl"
Result block: 2.846

Query block: Please look up its log partition dichloromethane / HPLC water, unbuffered, traces of methanol / DMSO: "Cc1ccc(N)c(S(=O)(=O)O)c1"
Result block: 1.153

====

test.summary: shake flask on a mixture of 185; loss from the water phase only; LC-Orbitrap peak areas
setup.conditions: room
Rule: label 1 for log partition n-undecane / HPLC water, unbuffered, traces of methanol / DMSO not less than -0.8 log10, label 0 for anything less.

Below are worked cases with known answers.
O=C1C=CC(=O)N1c1ccc(Cc2ccc(N3C(=O)C=CC3=O)cc2)cc1 = label 1
c1coc(-c2nc3ccccc3[nH]2)c1 = label 0
CCCCC(CC)C(=O)OCCOCCOCCOCCOC(=O)C(CC)CCCC (stereo not drawn) = label 0

Query block: I'd appreciate it if you could say whether "CC(C)Nc1nc(N)nc(Cl)n1" has log partition n-undecane / HPLC water, unbuffered, traces of methanol / DMSO at least equal to -0.8 log10.
Result block: label 0

Query block: I'd appreciate it if you could say whether "CCCCCCCCCCCCN1CCCCCC1=O" has log partition n-undecane / HPLC water, unbuffered, traces of methanol / DMSO at least equal to -0.8 log10.
Result block: label 0

Query block: I'd appreciate it if you could say whether "CN(C)c1ccc(Cc2ccc(N(C)C)cc2)cc1" has log partition n-undecane / HPLC water, unbuffered, traces of methanol / DMSO at least equal to -0.8 log10.
Result block: label 1

Query block: I'd appreciate it if you could say whether "CC(C)N1C(=O)c2ccccc2NS1(=O)=O" has log partition n-undecane / HPLC water, unbuffered, traces of methanol / DMSO at least equal to -0.8 log10.
Result block: label 0

Query block: I'd appreciate it if you could say whether "CC(=O)c1ccc2ccccc2c1" has log partition n-undecane / HPLC water, unbuffered, traces of methanol / DMSO at least equal to -0.8 log10.
Result block: label 1

Query block: I'd appreciate it if you could say whether "CN1COCN(Cc2cnc(Cl)s2)C1=N[N+](=O)[O-]" has log partition n-undecane / HPLC water, unbuffered, traces of methanol / DMSO at least equal to -0.8 log10.
Result block: label 0

Query block: I'd appreciate it if you could say whether "Nc1cc2c3c(c1)C(c1ccccc1)=N[C@@H](NC(=O)c1cccnc1)C(=O)N3CC2" has log partition n-undecane / HPLC water, unbuffered, traces of methanol / DMSO at least equal to -0.8 log10.
Result block: label 1

====

Here the recorded log partition chloroform / HPLC water, unbuffered, traces of methanol / DMSO is given for each entry.
test.summary: shake flask on a mixture of 185; loss from the water phase only; LC-Orbitrap peak areas
setup.conditions: room
Your answer is read as log10, so omit the unit and give the number.

Query block: Please look up its log partition chloroform / HPLC water, unbuffered, traces of methanol / DMSO: "O=C(O)c1ccccc1C(c1ccc(O)cc1)c1ccc(O)cc1"
Result block: -0.6877

Query block: Please look up its log partition chloroform / HPLC water, unbuffered, traces of methanol / DMSO: "CCOc1ccc2[nH]cc(C(=O)NCc3ccccc3)c(=O)c2n1"
Result block: 1.196

Query block: Please look up its log partition chloroform / HPLC water, unbuffered, traces of methanol / DMSO: "CC(=O)Oc1ccc(C(C)=O)cc1"
Result block: 0.8919

Query block: Please look up its log partition chloroform / HPLC water, unbuffered, traces of methanol / DMSO: CCCCC(CC)C(=O)OCCOCCOCCOCCOC(=O)C(CC)CCCC (stereo not shown)
Result block: -0.484

Query block: Please look up its log partition chloroform / HPLC water, unbuffered, traces of methanol / DMSO: "COc1ccccc1/C=C/C=O"
Result block: 0.6596

Query block: Please look up its log partition chloroform / HPLC water, unbuffered, traces of methanol / DMSO: O=C1OC(=O)C2C3C=CC(C3)C12 (stereo not shown)
Result block: 0.8465

Query block: Please look up its log partition chloroform / HPLC water, unbuffered, traces of methanol / DMSO: "CC(=O)/C=C/c1ccccc1"
Result block: -0.02485

====

test.summary: shake flask on a mixture of 185; loss from the water phase only; LC-QTOF peak areas
setup.conditions: room
observable: log partition butyl acetate / HPLC water, unbuffered, traces of methanol / DMSO (log10)
Your answer is read as log10, so omit the unit and give the number.

Here are 10 compounds together with their reported answers.
CN/C(=N/[N+](=O)[O-])NCC1CCOC1 (centres unmarked) = -1.391
CCCCNS(=O)(=O)c1ccc(C)cc1 = 1.471
CCNC(=O)C1CC(C)CCC1C(C)C (centres unmarked) = 1.72
C[C@H](CCC(=O)O)[C@H]1CC[C@H]2[C@@H]3CC[C@@H]4C[C@H](O)CC[C@]4(C)[C@H]3CC[C@]12C = -0.5367
CCC(C)(CC)c1cc(NC(=O)c2c(OC)cccc2OC)on1 = 2.159
CCCOC(=O)c1ccc(C(=O)OCCC)nc1 = 2.305
Oc1c(Cl)cc(Cl)cc1Sc1cc(Cl)cc(Cl)c1O = 1.778
CCc1ccc(C(=O)NN(C(=O)c2cc(C)cc(C)c2)C(C)(C)C)cc1 = 1.733
COC(=O)C(C)N(C(=O)c1ccco1)c1c(C)cccc1C (centres unmarked) = 2.322
CCOc1ccc2[nH]cc(C(=O)NCc3ccccc3)c(=O)c2n1 = 1.386

Query block: Please look up its log partition butyl acetate / HPLC water, unbuffered, traces of methanol / DMSO: "Nc1cc2c3c(c1)C(c1ccccc1)=N[C@@H](NC(=O)c1cccnc1)C(=O)N3CC2"
Result block: 1.224

Query block: Please look up its log partition butyl acetate / HPLC water, unbuffered, traces of methanol / DMSO: "Cn1cnc([N+](=O)[O-])c1Sc1ncnc2nc[nH]c12"
Result block: -0.2382

Query block: Please look up its log partition butyl acetate / HPLC water, unbuffered, traces of methanol / DMSO: "CCc1nn(C)c(C(=O)NCc2ccc(C(C)(C)C)cc2)c1Cl"
Result block: 1.589

Query block: Please look up its log partition butyl acetate / HPLC water, unbuffered, traces of methanol / DMSO: "c1coc(-c2nc3ccccc3[nH]2)c1"
Result block: 1.818
